tested-target: CXCL9 (MIG) (Homo sapiens)
Sequence: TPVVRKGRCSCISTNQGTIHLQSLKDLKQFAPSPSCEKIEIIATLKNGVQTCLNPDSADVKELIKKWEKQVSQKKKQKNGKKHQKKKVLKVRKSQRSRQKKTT
experimental-protocol: ELONA
study-conditions: phenol-clicked EdU at all N [28,44,47,49,50 (phenol-clicked EdU)]; n=2
measurement-kind: pKd
pKd here: minus log base 10 of the concentration, concentration in moles per litre.

Recorded result, CACGACGCAAGGGACCACAGGAGAGACTCACGGGCGGGCGACCTACTGTTCAGCCCAGACCGACAGCACGACACCGCAGAGGCA [I29 Phe] , pKd: 6.75
